molecular target: Human NPY5 Receptor (Homo sapiens, UniProt Q15761); assay: Human NPY5 Receptor Binding Assay; conditions: [125I]PYY; read-out: hNPY5 IC50
Sequence (Q15761 whole entry): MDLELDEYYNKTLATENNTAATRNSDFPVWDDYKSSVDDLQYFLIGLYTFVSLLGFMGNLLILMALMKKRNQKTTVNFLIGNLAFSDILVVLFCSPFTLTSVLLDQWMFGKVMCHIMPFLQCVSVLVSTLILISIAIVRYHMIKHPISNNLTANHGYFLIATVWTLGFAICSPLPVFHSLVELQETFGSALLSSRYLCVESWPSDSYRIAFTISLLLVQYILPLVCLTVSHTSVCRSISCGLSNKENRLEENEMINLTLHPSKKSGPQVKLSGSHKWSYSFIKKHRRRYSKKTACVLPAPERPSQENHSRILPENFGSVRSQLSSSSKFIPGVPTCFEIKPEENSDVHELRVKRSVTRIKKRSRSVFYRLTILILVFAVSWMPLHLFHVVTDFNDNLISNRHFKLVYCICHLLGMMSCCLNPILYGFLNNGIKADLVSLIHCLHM
pIC50: −log10 of the molar value.
pIC50 values for the compounds below.

{"columns": ["compound", "measured.target", "limit.qualifier", "pIC50"],
 "data": [
  ["Cn1c(Cn2cc(C(F)(F)F)ccc2=O)nnc1SCC(=O)Nc1ccc(Cl)cc1 [Compound 175, reference compound]", "Human NPY5 Receptor (Homo sapiens, UniProt Q15761)", "=", 5.15],
  ["CCOc1ccc(NC(=O)CSc2nccn2C)cc1 [Compound 156, reference compound]", "Human NPY5 Receptor (Homo sapiens, UniProt Q15761)", "<", 5.00],
  ["Cn1nnnc1SCC(=O)Nc1ccc2c(c1)Cc1ccccc1-2 [Compound 130]", "Human NPY5 Receptor (Homo sapiens, UniProt Q15761)", "=", 6.80],
  ["Cn1cnnc1SCC(=O)Nc1ccc(C2CCCCC2)cc1 [Compound 173, reference compound]", "Human NPY5 Receptor (Homo sapiens, UniProt Q15761)", "=", 7.10],
  ["COc1ccc2[nH]c(SCC(=O)Nc3ccc(C(=O)c4ccccc4)cc3)nc2c1 [Compound 20]", "Human NPY5 Receptor (Homo sapiens, UniProt Q15761)", "=", 6.38],
  ["CCCCCn1c(O)nnc1SCC(=O)Nc1ccc(Cl)cc1 [Compound 181, reference compound]", "Human NPY5 Receptor (Homo sapiens, UniProt Q15761)", "<", 5.00],
  ["O=C(CSc1nc(-c2ccccc2)no1)Nc1ccc(C(=O)c2ccccc2)cc1 [Compound 85]", "Human NPY5 Receptor (Homo sapiens, UniProt Q15761)", "=", 6.70],
  ["O=C(CSc1nnnn1-c1ccccc1)Nc1ccc(C2CCCCC2)cc1 [Compound 52]", "Human NPY5 Receptor (Homo sapiens, UniProt Q15761)", "=", 6.14]
]}

###

Biological target: Rat NPY5 Receptor (Rattus norvegicus)
Sequence (Q63634 1-445): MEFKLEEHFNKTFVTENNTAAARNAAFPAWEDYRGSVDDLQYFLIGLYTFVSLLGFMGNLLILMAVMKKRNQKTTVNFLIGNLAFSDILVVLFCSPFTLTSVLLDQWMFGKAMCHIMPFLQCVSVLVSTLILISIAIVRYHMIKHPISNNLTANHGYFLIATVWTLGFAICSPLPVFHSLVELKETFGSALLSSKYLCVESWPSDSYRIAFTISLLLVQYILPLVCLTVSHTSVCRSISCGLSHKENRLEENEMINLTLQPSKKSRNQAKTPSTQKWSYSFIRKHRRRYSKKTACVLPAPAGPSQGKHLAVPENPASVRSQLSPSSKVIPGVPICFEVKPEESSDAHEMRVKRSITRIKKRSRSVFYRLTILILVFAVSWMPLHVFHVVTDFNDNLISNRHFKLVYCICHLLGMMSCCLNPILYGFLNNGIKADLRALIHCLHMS
Test: Rat NPY5 Receptor Binding Assay
Conditions: 10 μM, values marked *; read-out: rNPY5 percent inhibition at 10 μM
Reported inhibition at 10 µM by item:

{"columns": ["compound", "inhibition at 10 µM"],
 "data": [
  ["O=C(CSc1ncc[nH]1)Nc1ccc(C(=O)c2ccccc2)cc1 [Compound 10]", "97%"],
  ["O=C(CSc1nc(-c2ccccc2)c(-c2ccccc2)[nH]1)Nc1ccc(C(=O)c2ccccc2)cc1 [Compound 16]", "80%"],
  ["Cn1ccnc1SCC(=O)Nc1ccc(-c2ccccc2)cc1 [Compound 1]", "95%"],
  ["O=C(CSc1ncc[nH]1)Nc1ccc(C2CCCCC2)cc1 [Compound 136]", "95%"]
]}

Entry source: patent US6245817A
